# measured.target: AURKA (Aurora A) (Homo sapiens, UniProt O14965)
# Sequence (O14965 whole entry, species assumed): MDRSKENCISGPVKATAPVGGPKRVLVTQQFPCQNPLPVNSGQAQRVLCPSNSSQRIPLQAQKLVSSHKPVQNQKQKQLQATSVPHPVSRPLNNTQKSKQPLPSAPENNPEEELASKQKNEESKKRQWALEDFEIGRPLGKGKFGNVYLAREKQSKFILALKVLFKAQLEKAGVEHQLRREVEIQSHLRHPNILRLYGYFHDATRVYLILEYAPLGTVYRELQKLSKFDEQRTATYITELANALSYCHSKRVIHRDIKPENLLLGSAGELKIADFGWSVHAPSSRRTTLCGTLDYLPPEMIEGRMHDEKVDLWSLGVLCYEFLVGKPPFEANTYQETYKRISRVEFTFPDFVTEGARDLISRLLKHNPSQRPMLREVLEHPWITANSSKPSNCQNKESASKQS
# test.name: FRET-based coupled-enzyme protein kinase inhibition assay
# Assay type: biochemical
# assay.conditions: compound at 10 µM, 1% DMSO
observation.type: inhibition at 10 µM (%)
Give the value, in units of %, as a plain number.

Use the examples below as a reference point.
Nc1ncnc2c1ncn2[C@@H]1O[C@H](COC(=O)N[C@@H]2CCN(Cc3ccccc3)C2)[C@@H](O)[C@H]1O -1
Nc1ncnc2c1ncn2[C@@H]1O[C@H](COC(=O)N2CCN(C(=O)N3CCOCC3)CC2)[C@@H](O)[C@H]1O -7

# input Determine its reported inhibition at 10 µM: N#CCCN1CCN(C(=O)OC[C@H]2O[C@@H](n3cnc4c(N)ncnc43)[C@H](O)[C@@H]2O)CC1
# output -1

# input Determine its reported inhibition at 10 µM: CC(C)N1CCC(NC(=O)OC[C@H]2O[C@@H](n3cnc4c(N)ncnc43)[C@H](O)[C@@H]2O)CC1
# output 6

# input Determine its reported inhibition at 10 µM: Nc1ncnc2c1ncn2[C@@H]1O[C@H](COC(=O)NC[C@H](O)CO)[C@@H](O)[C@H]1O
# output -7

# input Determine its reported inhibition at 10 µM: Nc1ncnc2c1ncn2[C@@H]1O[C@H](COC(=O)N2CCC[C@H]2CO)[C@@H](O)[C@H]1O
# output -5

# input Determine its reported inhibition at 10 µM: Nc1ncnc2c1ncn2[C@@H]1O[C@H](COC(=O)N2CCS(=O)(=O)CC2)[C@@H](O)[C@H]1O
# output -7

====

inhibition at 10 µM values, listed per item
# measured.target: ERBB2 (HER2) (Homo sapiens)
# Sequence (P04626 23-1255, species assumed): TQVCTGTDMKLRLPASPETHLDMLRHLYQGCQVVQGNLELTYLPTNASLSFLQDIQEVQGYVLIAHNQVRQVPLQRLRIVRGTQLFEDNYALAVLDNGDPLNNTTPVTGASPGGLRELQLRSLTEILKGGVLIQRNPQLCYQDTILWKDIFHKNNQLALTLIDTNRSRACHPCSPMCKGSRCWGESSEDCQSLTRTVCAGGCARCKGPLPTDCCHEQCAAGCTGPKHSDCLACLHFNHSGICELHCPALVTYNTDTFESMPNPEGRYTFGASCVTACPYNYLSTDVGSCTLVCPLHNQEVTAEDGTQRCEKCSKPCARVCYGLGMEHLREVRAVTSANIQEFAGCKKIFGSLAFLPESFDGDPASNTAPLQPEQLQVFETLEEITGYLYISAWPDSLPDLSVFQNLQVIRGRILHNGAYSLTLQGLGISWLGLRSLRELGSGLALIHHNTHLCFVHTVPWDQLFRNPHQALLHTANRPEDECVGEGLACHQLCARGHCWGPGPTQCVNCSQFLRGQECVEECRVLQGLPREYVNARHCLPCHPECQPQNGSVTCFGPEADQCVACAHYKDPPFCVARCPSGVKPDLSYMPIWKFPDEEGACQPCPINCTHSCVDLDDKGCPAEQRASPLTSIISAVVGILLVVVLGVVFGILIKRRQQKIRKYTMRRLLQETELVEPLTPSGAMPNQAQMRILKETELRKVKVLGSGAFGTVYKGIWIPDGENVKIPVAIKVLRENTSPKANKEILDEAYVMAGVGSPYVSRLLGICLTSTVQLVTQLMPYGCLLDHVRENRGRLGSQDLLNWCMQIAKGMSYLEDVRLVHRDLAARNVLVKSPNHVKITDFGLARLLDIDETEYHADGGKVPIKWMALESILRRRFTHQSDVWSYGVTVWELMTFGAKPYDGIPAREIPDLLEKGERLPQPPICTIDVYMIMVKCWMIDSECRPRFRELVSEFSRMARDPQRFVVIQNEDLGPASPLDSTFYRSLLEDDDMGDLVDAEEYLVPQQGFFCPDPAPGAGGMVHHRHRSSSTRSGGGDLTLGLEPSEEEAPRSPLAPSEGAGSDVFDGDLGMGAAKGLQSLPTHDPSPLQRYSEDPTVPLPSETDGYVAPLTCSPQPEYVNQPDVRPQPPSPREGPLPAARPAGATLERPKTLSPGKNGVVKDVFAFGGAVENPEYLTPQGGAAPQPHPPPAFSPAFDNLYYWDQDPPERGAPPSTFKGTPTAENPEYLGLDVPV
# test.name: FRET-based coupled-enzyme protein kinase inhibition assay
# Type: biochemical
# assay.conditions: compound at 10 µM, 1% DMSO
# Protocol: A biochemical assay was then performed in order to measure the protein kinase inhibition. It employed a fluorescence-based coupled-enzyme format and was based on the differential sensitivity of phosphorylated and non-phosphorylated peptides to proteolytic cleavage. […] A significant benefit of this ratiometric method for quantitating reaction progress is the elimination of well-to-well variations in FRET-peptide concentration and signal intensities. […]
Give the value, in units of %, as a plain number.

compound	uom	inhibition at 10 µM
Nc1ncnc2c1ncn2[C@@H]1O[C@H](COC(=O)N2CCS(=O)(=O)CC2)[C@@H](O)[C@H]1O	%	2
N#CCCN1CCN(C(=O)OC[C@H]2O[C@@H](n3cnc4c(N)ncnc43)[C@H](O)[C@@H]2O)CC1	%	0
Nc1ncnc2c1ncn2[C@@H]1O[C@H](COC(=O)N2CCN(CCc3ccccc3)CC2)[C@@H](O)[C@H]1O	%	8
C[C@@H](NC(=O)OC[C@H]1O[C@@H](n2cnc3c(N)ncnc32)[C@H](O)[C@@H]1O)c1ccc(Cl)cc1	%	2
Nc1ncnc2c1ncn2[C@@H]1O[C@H](COC(=O)N2CCN(Cc3ccccc3)CC2CO)[C@@H](O)[C@H]1O (stereo partly shown)	%	3

# input // output inhibition at 10 µM; input Nc1ncnc2c1ncn2[C@@H]1O[C@H](COC(=O)N2CCN(C(=O)N3CCOCC3)CC2)[C@@H](O)[C@H]1O ; system ERBB2 (HER2) (Homo sapiens)
# output -7

# input // output inhibition at 10 µM; input Nc1ncnc2c1ncn2[C@@H]1O[C@H](COC(=O)NCCCc2nc3ccccc3[nH]2)[C@@H](O)[C@H]1O ; system ERBB2 (HER2) (Homo sapiens)
# output 5

# input // output inhibition at 10 µM; input Nc1ncnc2c1ncn2[C@@H]1O[C@H](COC(=O)NCCN2CCCC2=O)[C@@H](O)[C@H]1O ; system ERBB2 (HER2) (Homo sapiens)
# output -9

# input // output inhibition at 10 µM; input CN(C)CCNC(=O)OC[C@H]1O[C@@H](n2cnc3c(N)ncnc32)[C@H](O)[C@@H]1O ; system ERBB2 (HER2) (Homo sapiens)
# output -13

# input // output inhibition at 10 µM; input Nc1ncnc2c1ncn2[C@@H]1O[C@H](COC(=O)N2CCC(Cc3ccc(F)cc3)C2)[C@@H](O)[C@H]1O (stereo partly shown) ; system ERBB2 (HER2) (Homo sapiens)
# output 11

====

# measured.target: CDK1/cyclin B (Homo sapiens)
# Sequence (P06493 whole entry, species assumed): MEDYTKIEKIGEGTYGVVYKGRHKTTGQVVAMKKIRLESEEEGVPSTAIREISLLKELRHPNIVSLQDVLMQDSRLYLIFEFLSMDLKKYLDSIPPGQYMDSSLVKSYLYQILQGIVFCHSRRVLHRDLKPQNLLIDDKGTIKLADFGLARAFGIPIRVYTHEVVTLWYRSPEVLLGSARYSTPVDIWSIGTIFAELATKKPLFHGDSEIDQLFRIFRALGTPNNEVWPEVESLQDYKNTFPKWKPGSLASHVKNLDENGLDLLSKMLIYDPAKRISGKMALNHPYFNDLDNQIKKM
# Sequence (P14635 whole entry partner, species assumed): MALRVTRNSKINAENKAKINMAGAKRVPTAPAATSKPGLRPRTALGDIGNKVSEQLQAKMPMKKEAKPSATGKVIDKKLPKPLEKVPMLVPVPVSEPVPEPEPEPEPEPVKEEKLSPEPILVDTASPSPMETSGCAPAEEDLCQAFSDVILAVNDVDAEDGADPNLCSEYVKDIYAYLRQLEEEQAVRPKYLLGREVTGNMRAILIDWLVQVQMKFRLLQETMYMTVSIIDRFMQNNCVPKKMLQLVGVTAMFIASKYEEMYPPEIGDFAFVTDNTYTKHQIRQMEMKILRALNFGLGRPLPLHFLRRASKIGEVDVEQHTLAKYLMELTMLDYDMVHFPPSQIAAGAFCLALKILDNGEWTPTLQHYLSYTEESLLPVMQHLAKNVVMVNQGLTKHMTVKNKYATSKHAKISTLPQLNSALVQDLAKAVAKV
# test.name: FRET-based coupled-enzyme protein kinase inhibition assay
# Assay type: biochemical
# assay.conditions: compound at 10 µM, 1% DMSO
inhibition at 10 µM values, listed per item
Give the value, in units of %, as a plain number.

Use the examples below as a reference point.
compound	measured.target	inhibition at 10 µM (%)
Nc1ncnc2c1ncn2[C@@H]1O[C@H](COC(=O)N2CCN(Cc3ccccc3)CC2CO)[C@@H](O)[C@H]1O (stereo partly shown)	CDK1/cyclin B (Homo sapiens)	9
Nc1ncnc2c1ncn2[C@@H]1O[C@H](COC(=O)N[C@@H]2CCN(Cc3ccccc3)C2)[C@@H](O)[C@H]1O	CDK1/cyclin B (Homo sapiens)	11
Nc1ncnc2c1ncn2[C@@H]1O[C@H](COC(=O)N2CCC[C@H]2CO)[C@@H](O)[C@H]1O	CDK1/cyclin B (Homo sapiens)	3

# input Determine its reported inhibition at 10 µM: Nc1ncnc2c1ncn2[C@@H]1O[C@H](COC(=O)NCCCc2nc3ccccc3[nH]2)[C@@H](O)[C@H]1O
# output -2

# input Determine its reported inhibition at 10 µM: CS(=O)(=O)N1CC2(CCN(C(=O)OC[C@H]3O[C@@H](n4cnc5c(N)ncnc54)[C@H](O)[C@@H]3O)CC2)c2ccccc21
# output 8

# input Determine its reported inhibition at 10 µM: Nc1ncnc2c1ncn2[C@@H]1O[C@H](COC(=O)N2CCC(Cc3ccc(F)cc3)C2)[C@@H](O)[C@H]1O (stereo partly shown)
# output 11

# input Determine its reported inhibition at 10 µM: Nc1ncnc2c1ncn2[C@@H]1O[C@H](COC(=O)N2CCN(CCc3ccccc3)CC2)[C@@H](O)[C@H]1O
# output 8

====

# measured.target: LCK (Homo sapiens, UniProt P06239)
# test.name: FRET-based coupled-enzyme protein kinase inhibition assay
# Format: biochemical
# assay.conditions: compound at 10 µM, 1% DMSO
Is inhibition at 10 µM at least 30%? Then criterion met. If not, criterion not met.

# input Given Nc1ncnc2c1ncn2[C@@H]1O[C@H](COC(=O)N2CCN(CCc3ccccc3)CC2)[C@@H](O)[C@H]1O , state whether its inhibition at 10 µM is at least 30%.
# output criterion met

# input Given CS(=O)(=O)N1CC2(CCN(C(=O)OC[C@H]3O[C@@H](n4cnc5c(N)ncnc54)[C@H](O)[C@@H]3O)CC2)c2ccccc21 , state whether its inhibition at 10 µM is at least 30%.
# output criterion met

====

# measured.target: PDGFRB (PDGFR beta) (Homo sapiens)
# Sequence (P09619 33-1106, species assumed): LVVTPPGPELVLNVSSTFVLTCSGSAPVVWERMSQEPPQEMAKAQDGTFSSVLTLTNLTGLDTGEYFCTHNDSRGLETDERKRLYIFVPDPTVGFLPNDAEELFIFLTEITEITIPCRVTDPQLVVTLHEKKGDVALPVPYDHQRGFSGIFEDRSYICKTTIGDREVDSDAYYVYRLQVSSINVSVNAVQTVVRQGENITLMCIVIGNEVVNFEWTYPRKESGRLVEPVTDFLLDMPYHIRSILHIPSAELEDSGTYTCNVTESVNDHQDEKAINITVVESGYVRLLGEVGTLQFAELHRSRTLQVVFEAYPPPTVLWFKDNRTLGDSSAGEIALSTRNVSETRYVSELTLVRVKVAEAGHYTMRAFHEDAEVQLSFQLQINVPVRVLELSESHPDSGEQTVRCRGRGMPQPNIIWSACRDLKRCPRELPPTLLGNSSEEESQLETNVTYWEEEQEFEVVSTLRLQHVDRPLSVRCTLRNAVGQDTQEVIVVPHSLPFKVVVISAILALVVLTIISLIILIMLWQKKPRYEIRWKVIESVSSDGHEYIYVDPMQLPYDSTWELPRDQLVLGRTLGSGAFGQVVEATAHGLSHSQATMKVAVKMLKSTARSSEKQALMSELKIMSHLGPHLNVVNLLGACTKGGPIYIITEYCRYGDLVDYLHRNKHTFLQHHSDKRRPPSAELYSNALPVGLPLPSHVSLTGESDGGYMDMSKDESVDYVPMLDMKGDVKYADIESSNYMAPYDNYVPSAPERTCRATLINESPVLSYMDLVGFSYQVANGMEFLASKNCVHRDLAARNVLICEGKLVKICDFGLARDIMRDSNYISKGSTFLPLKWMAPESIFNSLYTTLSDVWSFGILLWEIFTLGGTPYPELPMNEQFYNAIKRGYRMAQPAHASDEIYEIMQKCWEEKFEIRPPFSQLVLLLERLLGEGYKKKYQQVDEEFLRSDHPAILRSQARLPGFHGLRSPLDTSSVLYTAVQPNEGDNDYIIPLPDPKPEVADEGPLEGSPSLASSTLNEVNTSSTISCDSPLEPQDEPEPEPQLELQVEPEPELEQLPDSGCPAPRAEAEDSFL
# test.name: FRET-based coupled-enzyme protein kinase inhibition assay
# Type: biochemical
# assay.conditions: compound at 10 µM, 1% DMSO
# Method: A biochemical assay was then performed in order to measure the protein kinase inhibition. It employed a fluorescence-based coupled-enzyme format and was based on the differential sensitivity of phosphorylated and non-phosphorylated peptides to proteolytic cleavage. […] A significant benefit of this ratiometric method for quantitating reaction progress is the elimination of well-to-well variations in FRET-peptide concentration and signal intensities. […]
inhibition at 10 µM values, listed per item
Give the value, in units of %, as a plain number.

Use the examples below as a reference point.
compound	uom	recorded.value
Nc1ncnc2c1ncn2[C@@H]1O[C@H](COC(=O)N2CCC[C@H]2CO)[C@@H](O)[C@H]1O	%	-1
Nc1ncnc2c1ncn2[C@@H]1O[C@H](COC(=O)N2CCN(CCc3ccccc3)CC2)[C@@H](O)[C@H]1O	%	1
CN(C)CCNC(=O)OC[C@H]1O[C@@H](n2cnc3c(N)ncnc32)[C@H](O)[C@@H]1O	%	8
CC(C)N1CCC(NC(=O)OC[C@H]2O[C@@H](n3cnc4c(N)ncnc43)[C@H](O)[C@@H]2O)CC1	%	6
Nc1ncnc2c1ncn2[C@@H]1O[C@H](COC(=O)N[C@@H]2CCN(Cc3ccccc3)C2)[C@@H](O)[C@H]1O	%	7
Nc1ncnc2c1ncn2[C@@H]1O[C@H](COC(=O)N2CCS(=O)(=O)CC2)[C@@H](O)[C@H]1O	%	4
N#CCCN1CCN(C(=O)OC[C@H]2O[C@@H](n3cnc4c(N)ncnc43)[C@H](O)[C@@H]2O)CC1	%	4
Nc1ncnc2c1ncn2[C@@H]1O[C@H](COC(=O)N2CCN(C(=O)N3CCOCC3)CC2)[C@@H](O)[C@H]1O	%	9

# input // output inhibition at 10 µM; input Nc1ncnc2c1ncn2[C@@H]1O[C@H](COC(=O)N2CCN(Cc3ccccc3)CC2CO)[C@@H](O)[C@H]1O (stereo partly drawn) ; system PDGFRB (PDGFR beta) (Homo sapiens)
# output 6

====

# measured.target: EGFR (ErbB1) (Homo sapiens)
# Sequence (P00533 25-1210, species assumed): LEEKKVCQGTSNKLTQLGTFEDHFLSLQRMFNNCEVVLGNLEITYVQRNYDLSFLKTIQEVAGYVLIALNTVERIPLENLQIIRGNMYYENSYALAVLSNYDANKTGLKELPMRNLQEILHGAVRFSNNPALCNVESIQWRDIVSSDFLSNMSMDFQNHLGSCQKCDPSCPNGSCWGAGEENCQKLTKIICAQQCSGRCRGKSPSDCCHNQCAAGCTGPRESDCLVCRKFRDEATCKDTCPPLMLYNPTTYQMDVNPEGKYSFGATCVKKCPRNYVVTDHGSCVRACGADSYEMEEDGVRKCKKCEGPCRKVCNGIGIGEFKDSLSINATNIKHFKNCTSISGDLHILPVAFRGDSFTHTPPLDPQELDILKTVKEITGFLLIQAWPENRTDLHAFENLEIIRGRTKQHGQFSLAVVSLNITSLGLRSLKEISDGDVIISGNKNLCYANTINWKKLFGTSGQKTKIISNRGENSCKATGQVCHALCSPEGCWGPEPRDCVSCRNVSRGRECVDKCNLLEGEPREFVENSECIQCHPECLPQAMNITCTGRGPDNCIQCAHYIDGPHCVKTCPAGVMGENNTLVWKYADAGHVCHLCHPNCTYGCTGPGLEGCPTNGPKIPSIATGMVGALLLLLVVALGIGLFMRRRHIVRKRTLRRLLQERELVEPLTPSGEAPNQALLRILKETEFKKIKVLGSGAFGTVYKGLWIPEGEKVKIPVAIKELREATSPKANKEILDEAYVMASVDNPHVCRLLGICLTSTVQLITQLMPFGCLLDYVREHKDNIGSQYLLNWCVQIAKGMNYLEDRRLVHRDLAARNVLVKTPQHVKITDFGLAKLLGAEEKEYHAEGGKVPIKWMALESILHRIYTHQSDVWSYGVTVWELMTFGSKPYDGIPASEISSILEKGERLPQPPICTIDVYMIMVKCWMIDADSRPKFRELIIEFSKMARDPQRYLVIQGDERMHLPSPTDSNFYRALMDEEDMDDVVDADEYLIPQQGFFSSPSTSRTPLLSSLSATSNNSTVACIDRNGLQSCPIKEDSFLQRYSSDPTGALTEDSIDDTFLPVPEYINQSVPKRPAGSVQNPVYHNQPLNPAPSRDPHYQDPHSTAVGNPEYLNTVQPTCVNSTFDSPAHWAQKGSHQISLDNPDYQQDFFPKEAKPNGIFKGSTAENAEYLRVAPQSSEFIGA
# test.name: FRET-based coupled-enzyme protein kinase inhibition assay
# Format: biochemical
# assay.conditions: compound at 10 µM, 1% DMSO
inhibition at 10 µM values, listed per item
Give the value, in units of %, as a plain number.

compound	observation.type	recorded.value
Nc1ncnc2c1ncn2[C@@H]1O[C@H](COC(=O)N2CCC(Cc3ccc(F)cc3)C2)[C@@H](O)[C@H]1O (stereo partly shown)	inhibition at 10 µM	31
Nc1ncnc2c1ncn2[C@@H]1O[C@H](COC(=O)NC[C@H](O)CO)[C@@H](O)[C@H]1O	inhibition at 10 µM	14

# input Determine its reported inhibition at 10 µM: N#CCCN1CCN(C(=O)OC[C@H]2O[C@@H](n3cnc4c(N)ncnc43)[C@H](O)[C@@H]2O)CC1
# output -1

# input Determine its reported inhibition at 10 µM: C[C@@H](NC(=O)OC[C@H]1O[C@@H](n2cnc3c(N)ncnc32)[C@H](O)[C@@H]1O)c1ccc(Cl)cc1
# output 22

# input Determine its reported inhibition at 10 µM: Nc1ncnc2c1ncn2[C@@H]1O[C@H](COC(=O)N2CCN(CCc3ccccc3)CC2)[C@@H](O)[C@H]1O
# output 13

# input Determine its reported inhibition at 10 µM: CS(=O)(=O)N1CC2(CCN(C(=O)OC[C@H]3O[C@@H](n4cnc5c(N)ncnc54)[C@H](O)[C@@H]3O)CC2)c2ccccc21
# output 5

# input Determine its reported inhibition at 10 µM: CC(C)N1CCC(NC(=O)OC[C@H]2O[C@@H](n3cnc4c(N)ncnc43)[C@H](O)[C@@H]2O)CC1
# output 17

# input Determine its reported inhibition at 10 µM: CN1CCN(CCNC(=O)OC[C@H]2O[C@@H](n3cnc4c(N)ncnc43)[C@H](O)[C@@H]2O)CC1
# output 14

# input Determine its reported inhibition at 10 µM: Nc1ncnc2c1ncn2[C@@H]1O[C@H](COC(=O)N2CCS(=O)(=O)CC2)[C@@H](O)[C@H]1O
# output 8

# input Determine its reported inhibition at 10 µM: Nc1ncnc2c1ncn2[C@@H]1O[C@H](COC(=O)N[C@@H]2CCN(Cc3ccccc3)C2)[C@@H](O)[C@H]1O
# output 27

# input Determine its reported inhibition at 10 µM: Nc1ncnc2c1ncn2[C@@H]1O[C@H](COC(=O)NCCN2CCCC2=O)[C@@H](O)[C@H]1O
# output 11
